procedure.details: chemical genetic growth profiling, strain panel (AID 1159580);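 note: tested at 20 µM; growth read once vehicle control cultures reached saturation at 30 °C; 1 = growth at the plate median or of vehicle wells; lower values mean less growth of the strain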
condition.notes: S. cerevisiae deletion strains, growth OD, locus YDR392W, strain spt3
In all, about 5,500 compounds went through this assay and about 2,000 (36%) were called active. About 18% were inconclusive and are not listed. Cut-off read from the data, not from the text of the source: active = normalized growth mostly below about 0.91 (no sharp cut-off); inconclusive = no clear call, values can overlap the other calls; inactive = mostly above about 0.92. The list shows a part of the results.
Labels: 1 = active, -1 = inactive

compound | class.label
O=c1c(O)c(-c2ccc(O)cc2)oc2ccccc12 | 1
COc1ccc(-c2c(O)c3c(OC)c4c(cc3oc2=O)OC(C)(C)C=C4)cc1 | 1
CC(NC(C)(C)C)C(=O)c1cccc(Cl)c1 (stereo unspecified) | -1
CC(C)[C@@H]1CC[C@@H](C)CC1=O | -1
O=c1c(O)c(-c2ccccc2)oc2ccc3occc3c12 | 1
C=C(C)C1Cc2c(ccc3c(=O)c4c(oc23)COc2cc(OC)c(OC)cc2-4)O1 (stereo unspecified) | -1

* * *

procedure.details: chemical genetic growth profiling, strain panel (AID 1159580);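 note: tested at 20 µM; growth read once vehicle control cultures reached saturation at 30 °C; 1 = growth at the plate median or of vehicle wells; lower values mean less growth of the strain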
condition.notes: S. cerevisiae strains, growth OD, strain wild type, active compounds read low
In all, about 5,500 compounds went through this assay and about 2,000 (36%) were called active. Inconclusive results (about 18%) are left out. The list shows a part of the results.
As shown below, each of these compounds has a reported normalized growth value.
recorded.endpoint: normalized growth

compound | recorded.endpoint | experimental.result
O=C(N[C@@H](CO)[C@H](O)c1ccc([N+](=O)[O-])cc1)C(Cl)Cl | normalized growth | 1
Cc1c(NC(C)C)c(=O)n(-c2ccccc2)n1C | normalized growth | 0.995
CCCc1ccc(-c2nc(-c3ccc(C)cc3)no2)cc1 | normalized growth | 1.01
Cc1ccc(S(=O)(=O)N2CCCCCC2)cc1 | normalized growth | 1
O=C1C(=O)c2ccccc2C(O)=C1C1CCC(c2ccc(Cl)cc2)CC1 (stereo unspecified) | normalized growth | 0.999
COc1cc([C@@H]2c3cc4c(cc3[C@H](O)[C@H]3COC(=O)[C@H]23)OCO4)cc(OC)c1OC | normalized growth | 1.01
Oc1cccc2cccnc12 | normalized growth | 0.0541
COc1cc(OC)c2c(OC)c(-c3ccc4c(c3)OCO4)c(=O)oc2c1 | normalized growth | 0.982
COc1cc(Cc2cnc(N)nc2N)cc(OC)c1OC | normalized growth | 1.01
CC(C)[C@@H]1CC[C@@H](C)CC1=O | normalized growth | 1.01
CC(=O)OC[C@@]1(O)C[C@@]23CCC4c5ccoc5CC[C@]4(C)C2CC[C@@H]1C3 (stereo partly specified) | normalized growth | 0.964

* * *

procedure.details: chemical genetic growth profiling, strain panel (AID 1159580);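 note: tested at 20 µM; growth read once vehicle control cultures reached saturation at 30 °C; 1 = growth at the plate median or of vehicle wells; lower values mean less growth of the strain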
condition.notes: S. cerevisiae deletion strains, growth OD, locus YML120C, strain ndi1, active compounds read low
Screen size: about 5,500 compounds; about 2,000 (36%) were called active. Inconclusive results (about 18%) are left out. This is one part of the list.
As shown below, each of these molecules has a reported normalized growth value.

molecule | normalized growth
NS(=O)(=O)c1cc2c(cc1Cl)NCNS2(=O)=O | 0.978
CC(=O)OC1CCC23CC1(C)CCC2C(C)(C)CC3OC(C)=O (stereo not given) | 0.965
CC(=O)O[C@@H]1C2CC[C@@H]3C1(C[C@@H](O)[C@@]1(O)[C@@H](C[C@H](O)C1(C)C)[C@]3(C)O)C[C@@]2(C)O (stereo not given in full) | 0.994
CC(C)=CCC/C(C)=C/CO | 1.01
CC(=O)O[C@H]1CC2CCC3C(CC[C@@]4(C)C3C[C@H]([N+]3(C)CCCCC3)[C@@H]4OC(C)=O)[C@@]2(C)C[C@@H]1N1CCCCC1 (stereo not given in full) | 1.02
